# system_name: pre-existing anti-VH ADA in human serum
# method_notes: ADA confirmation assay (MSD): 10 ug/mL test material against labelled DOM1H-131-206; share of 10 ADA-positive sera with binding
metric: % subjects with ADA binding (10 subjects) (% of subjects)
Answer using only a numeral; do not append any unit.

Sample records with % subjects with ADA binding (10 subjects) (% of subjects):
| binder | recorded_number |
| --- | --- |
| DOM1H-131-206 Q13A (protein, name in Kabat numbering) VH: EVQLLESGGGLVAPGGSLRLSCAASGFTFAHETMVWVRQAPGKGLEWVSHIPPDGQDPFYADSVKGRFTISRDNSKNTLYLQMNSLRAEDTAVYHCALLPKRGPWFDYWGQGTLVTVSS | 100 |
| DOM1H-131-206 K43A (other, name in Kabat numbering, VH dAb variant) VH: EVQLLESGGGLVQPGGSLRLSCAASGFTFAHETMVWVRQAPGAGLEWVSHIPPDGQDPFYADSVKGRFTISRDNSKNTLYLQMNSLRAEDTAVYHCALLPKRGPWFDYWGQGTLVTVSS | 100 |
| DOM1H-131-206 C-terminal ASTKG (protein) VH: EVQLLESGGGLVQPGGSLRLSCAASGFTFAHETMVWVRQAPGKGLEWVSHIPPDGQDPFYADSVKGRFTISRDNSKNTLYLQMNSLRAEDTAVYHCALLPKRGPWFDYWGQGTLVTVSSASTKG | 40 |
| DOM1H-131-206 P41A (other, name in Kabat numbering, VH dAb variant) VH: EVQLLESGGGLVQPGGSLRLSCAASGFTFAHETMVWVRQAAGKGLEWVSHIPPDGQDPFYADSVKGRFTISRDNSKNTLYLQMNSLRAEDTAVYHCALLPKRGPWFDYWGQGTLVTVSS | 100 |

Problem: Name the recorded % subjects with ADA binding (10 subjects) (% of subjects) of the item DOM1H-131-206 P14A (protein) VH: EVQLLESGGGLVQAGGSLRLSCAASGFTFAHETMVWVRQAPGKGLEWVSHIPPDGQDPFYADSVKGRFTISRDNSKNTLYLQMNSLRAEDTAVYHCALLPKRGPWFDYWGQGTLVTVSS in your answer.
Solution: 100

Problem: Consider the binder DOM1H-131-206 L108Q (protein, name in Kabat numbering) VH: EVQLLESGGGLVQPGGSLRLSCAASGFTFAHETMVWVRQAPGKGLEWVSHIPPDGQDPFYADSVKGRFTISRDNSKNTLYLQMNSLRAEDTAVYHCALLPKRGPWFDYWGQGTQVTVSS . State its measured % subjects with ADA binding (10 subjects) (% of subjects).
Solution: 100

Problem: Please report the measured % subjects with ADA binding (10 subjects) (% of subjects) for DOM1H-131-206 C-terminal ASTKGP (other, VH dAb variant) VH: EVQLLESGGGLVQPGGSLRLSCAASGFTFAHETMVWVRQAPGKGLEWVSHIPPDGQDPFYADSVKGRFTISRDNSKNTLYLQMNSLRAEDTAVYHCALLPKRGPWFDYWGQGTLVTVSSASTKGP
Solution: 60
